Origin of measurements: PubChem BioAssay AID430

# Lookup of reported cytotoxicity keyed by entry
- test: cytotoxicity in HPDE-C7 cells, cell-based, fluorescence, HTS (AID 430);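 further: cells exposed to compound for 48 hours before viability readout; 0% = vehicle and 100% = reference cytotoxic drug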
- experimental_context: HPDE-C7 pancreatic duct cells viability, at 10 µM, stronger effect = higher value
The campaign covered roughly 63,000 compounds. About 1,100 (1.7%) were called active. What follows is part of a selection rich in actives, with near analogues and random picks from the rest. Entries with a potency or affinity are not part of this list.
observation_type: cytotoxicity

mol	observation_type	result_value
O=C1N(S(=O)(=O)c2ccccc2F)C(=O)C2(CCCC2)N1S(=O)(=O)c1ccccc1F	cytotoxicity	-2.1% (inactive)
Cc1cccc(C)c1NC(=O)c1cc(S(=O)(=O)N2CCOCC2)ccc1F	cytotoxicity	-47.4% (inactive)
CC(C)(C)c1ccccc1NC(=O)c1ccco1	cytotoxicity	15% (inactive)
